# assay.explanation: Plasma concentration in Sprague-Dawley rat at 40 mg/kg, po bid administered for 5 days measured 2 hrs post last dose
# Format: ADME, organism-based
# Parameters: dose 40 mg/kg, route oral
endpoint.name: concentration at 2 h (µM)
All answers are understood in µM, so give the number only.

For record CC1(C)CC=C(c2cc(C(C)(C)N3CCN(CCO)CC3)ccc2NC(=O)c2nc(C#N)c[nH]2)CC1 the listed concentration at 2 h is 5.16

----------
# assay.explanation: Metabolic stability in human liver microsomes assessed as compound remaining after 10 mins
# Assay type: ADME
# measurement.context: liver microsomes, read-out: Stability
Answer each item with its documented remaining at 10 min.
Write it as a number; the unit % goes unstated.

Record summary for CC1(C)CC=C(c2cc(CN3CCN(CCO)CC3)ccc2NC(=O)c2nc(C#N)c[nH]2)CC1 : reported remaining at 10 min = 101

Just so you know, measured remaining at 10 min for CC1(C)CC=C(c2cc(C(C)(C)NCCN3CCOCC3)ccc2NC(=O)c2nc(C#N)c[nH]2)CC1 came out at 82

So for CC1(C)CC=C(c2cc(CCS(N)(=O)=O)ccc2NC(=O)c2nc(C#N)c[nH]2)CC1 , the logged remaining at 10 min turned out to be 109

response.value for CN1CCN(C(C)(C)c2ccc(NC(=O)c3ncc(C#N)[nH]3)c(C3=CCC(C)(C)CC3)c2)CC1 (field: remaining at 10 min) = 103

Recorded remaining at 10 min (compound COCCN(C)C(C)(C)c1ccc(NC(=O)c2nc(C#N)c[nH]2)c(C2=CCC(C)(C)CC2)c1 ): 11

----------
# assay.explanation: Volume of distribution in Sprague-Dawley rat at 1 mg/kg, iv
# Type: ADME, organism-based
# Parameters: dose 1 mg/kg, route intravenous
# measurement.context: in vivo
endpoint.name: Vd (L/kg)
Write the number in L/kg without appending the unit.

# compound CC1(C)CC=C(c2cc(C(C)(C)N3CCN(CCO)CC3)ccc2NC(=O)c2nc(C#N)c[nH]2)CC1.Cl ; its Vd = 7.6

----------
# assay.explanation: Tmax in Sprague-Dawley rat at 5 mg/kg, po
# Assay type: ADME, organism-based
# Design: dose 5 mg/kg, route oral
# measurement.context: in vivo
endpoint.name: Tmax

For this compound ( CC1(C)CC=C(c2cc(C(C)(C)N3CCN(CCO)CC3)ccc2NC(=O)c2nc(C#N)c[nH]2)CC1.Cl ), measured Tmax is 2.8 h

----------
# assay.explanation: AUC in Sprague-Dawley rat at 5 mg/kg, po
# Type: ADME, organism-based
# Design: dose 5 mg/kg, route oral
# measurement.context: plasma
endpoint.name: AUC (ng·h/mL)
Give the value in ng·h/mL but do not write ng·h/mL after it.

Lab note: CC1(C)CC=C(c2cc(C(C)(C)N3CCN(CCO)CC3)ccc2NC(=O)c2nc(C#N)c[nH]2)CC1.Cl gave AUC of 690

----------
# assay.explanation: Metabolic stability in rat liver microsomes assessed as compound remaining after 10 mins
# Format: ADME
# measurement.context: read-out: Stability
Could you please report measured remaining at 10 min for the items listed next?
Reply with just the number (in %).

For record N#Cc1c[nH]c(C(=O)Nc2ccc(CCS(=O)(=O)N3CCOCC3)cc2C2=CCCCC2)n1 the listed remaining at 10 min is 4

# compound CC1(C)CC=C(c2cc(C(C)(C)NCCS(C)(=O)=O)ccc2NC(=O)c2nc(C#N)c[nH]2)CC1 ; its remaining at 10 min = 28

Input CC(C)(O)Cc1ccc(NC(=O)c2nc(C#N)c[nH]2)c(C2=CCCCC2)c1 . Output remaining at 10 min: 47

Looking up COCCN(C)C(C)(C)c1ccc(NC(=O)c2nc(C#N)c[nH]2)c(C2=CCC(C)(C)CC2)c1 , I found its remaining at 10 min recorded as 13

Reported remaining at 10 min ( CC1(C)CC=C(c2cc(CCS(N)(=O)=O)ccc2NC(=O)c2nc(C#N)c[nH]2)CC1 ) = 5

Lab note: measured remaining at 10 min of N#Cc1cnc(C(=O)Nc2ccc(CCO)cc2C2=CCCCC2)[nH]1 was 3

// field: remaining at 10 min; key: CN(C)CC(=O)N1CCC(c2ccc(NC(=O)c3nc(C#N)c[nH]3)c(C3=CCCCC3)c2)CC1 ; value = 77

remaining at 10 min reading for CC1(C)CC=C(c2cc(C(C)(C)N3CCN(CCO)CC3)ccc2NC(=O)c2nc(C#N)c[nH]2)CC1 : 63

remaining at 10 min measured on CC1(C)CC=C(c2cc(C(C)(C)O)ccc2NC(=O)c2nc(C#N)c[nH]2)CC1 = 96

Form: compound = COCCN1CCN(C(C)(C)c2ccc(NC(=O)c3nc(C#N)c[nH]3)c(C3=CCC(C)(C)CC3)c2)CC1 ; remaining at 10 min = 40

remaining at 10 min measured on CC1(C)CC=C(c2cc(CN3CCN(CCO)CC3)ccc2NC(=O)c2nc(C#N)c[nH]2)CC1 = 2

Input CC1(C)CC=C(c2cc(C(C)(C)N3CCS(=O)(=O)CC3)ccc2NC(=O)c2nc(C#N)c[nH]2)CC1 . Output remaining at 10 min: 98

For reference, reported remaining at 10 min for CCN1CCN(C(C)(C)c2ccc(NC(=O)c3nc(C#N)c[nH]3)c(C3=CCC(C)(C)CC3)c2)CC1 stands at 32

Entry COCCNCC(C)(C)c1ccc(NC(=O)c2nc(C#N)c[nH]2)c(C2=CCC(C)(C)CC2)c1 — recorded remaining at 10 min = 39

CC1(C)CC=C(c2cc(C(C)(C)NCCN3CCOCC3)ccc2NC(=O)c2nc(C#N)c[nH]2)CC1 yielded remaining at 10 min of 90

For CC1(C)CC=C(c2cc(C(C)(C)OCCN3CCOCC3)ccc2NC(=O)c2nc(C#N)c[nH]2)CC1 the compound record lists remaining at 10 min as 44

Briefly, remaining at 10 min measured for COCCNC(C)(C)c1ccc(NC(=O)c2nc(C#N)c[nH]2)c(C2=CCC(C)(C)CC2)c1 : 78

Input CN1CCN(C(C)(C)c2ccc(NC(=O)c3ncc(C#N)[nH]3)c(C3=CCC(C)(C)CC3)c2)CC1 . Output remaining at 10 min: 16

Recorded result, N#Cc1c[nH]c(C(=O)Nc2ccc(CCC(=O)O)cc2C2=CCCCC2)n1 , remaining at 10 min: 19

Documented remaining at 10 min of CN(C)CCOC(C)(C)c1ccc(NC(=O)c2ncc(C#N)[nH]2)c(C2=CCC(C)(C)CC2)c1 : 39

----------
# tested.on: Mast/stem cell growth factor receptor Kit (Homo sapiens, UniProt P10721)
# Sequence (P10721 whole entry): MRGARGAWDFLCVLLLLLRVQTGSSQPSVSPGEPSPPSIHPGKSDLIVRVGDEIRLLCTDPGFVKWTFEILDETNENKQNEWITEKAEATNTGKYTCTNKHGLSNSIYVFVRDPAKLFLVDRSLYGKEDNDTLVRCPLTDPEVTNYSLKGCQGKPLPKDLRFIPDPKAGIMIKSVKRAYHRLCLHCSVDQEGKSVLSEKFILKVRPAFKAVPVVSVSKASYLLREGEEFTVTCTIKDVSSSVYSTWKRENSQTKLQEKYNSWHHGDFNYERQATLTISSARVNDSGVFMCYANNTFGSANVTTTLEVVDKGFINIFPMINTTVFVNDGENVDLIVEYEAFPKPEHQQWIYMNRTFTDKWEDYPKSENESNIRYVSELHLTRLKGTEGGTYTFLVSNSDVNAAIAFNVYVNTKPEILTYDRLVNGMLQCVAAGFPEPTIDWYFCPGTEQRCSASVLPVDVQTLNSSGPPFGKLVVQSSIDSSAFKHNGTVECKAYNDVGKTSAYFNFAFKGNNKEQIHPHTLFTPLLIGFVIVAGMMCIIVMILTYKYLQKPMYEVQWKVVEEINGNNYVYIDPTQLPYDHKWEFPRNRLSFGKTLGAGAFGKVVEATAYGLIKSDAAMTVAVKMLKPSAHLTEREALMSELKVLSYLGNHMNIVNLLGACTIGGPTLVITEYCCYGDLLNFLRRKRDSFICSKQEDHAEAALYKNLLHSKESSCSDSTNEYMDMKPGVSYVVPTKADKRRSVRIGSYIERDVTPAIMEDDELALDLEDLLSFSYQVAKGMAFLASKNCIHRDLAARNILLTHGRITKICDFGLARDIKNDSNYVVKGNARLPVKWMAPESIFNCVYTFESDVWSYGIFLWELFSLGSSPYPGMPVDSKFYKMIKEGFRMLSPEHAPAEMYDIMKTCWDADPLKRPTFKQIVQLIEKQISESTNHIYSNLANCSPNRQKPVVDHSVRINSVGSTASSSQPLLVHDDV
For each entry below, report its pIC50 value.
Please note pIC50 is a logarithmic value: minus log10 of concentration in mol/L. Answer with that number alone.

Entry CC1(C)CC=C(c2cc(C(C)(C)OCCN3CCCC3)ccc2NC(=O)c2nc(C#N)c[nH]2)CC1 , pIC50 reported as 7.60

Memo: CC1(C)CC=C(c2cc(C(C)(C)OCCN3CCOCC3)ccc2NC(=O)c2nc(C#N)c[nH]2)CC1 , reported pIC50: 7.24

Entry CC(=O)N1CCN(C(C)(C)c2ccc(NC(=O)c3nc(C#N)c[nH]3)c(C3=CCC(C)(C)CC3)c2)CC1 ; pIC50 = 7.40

----------
Exercise: for every item that follows, state its recorded pIC50.
# tested.on: UniProt:P09581
# Sequence (P09581 whole entry): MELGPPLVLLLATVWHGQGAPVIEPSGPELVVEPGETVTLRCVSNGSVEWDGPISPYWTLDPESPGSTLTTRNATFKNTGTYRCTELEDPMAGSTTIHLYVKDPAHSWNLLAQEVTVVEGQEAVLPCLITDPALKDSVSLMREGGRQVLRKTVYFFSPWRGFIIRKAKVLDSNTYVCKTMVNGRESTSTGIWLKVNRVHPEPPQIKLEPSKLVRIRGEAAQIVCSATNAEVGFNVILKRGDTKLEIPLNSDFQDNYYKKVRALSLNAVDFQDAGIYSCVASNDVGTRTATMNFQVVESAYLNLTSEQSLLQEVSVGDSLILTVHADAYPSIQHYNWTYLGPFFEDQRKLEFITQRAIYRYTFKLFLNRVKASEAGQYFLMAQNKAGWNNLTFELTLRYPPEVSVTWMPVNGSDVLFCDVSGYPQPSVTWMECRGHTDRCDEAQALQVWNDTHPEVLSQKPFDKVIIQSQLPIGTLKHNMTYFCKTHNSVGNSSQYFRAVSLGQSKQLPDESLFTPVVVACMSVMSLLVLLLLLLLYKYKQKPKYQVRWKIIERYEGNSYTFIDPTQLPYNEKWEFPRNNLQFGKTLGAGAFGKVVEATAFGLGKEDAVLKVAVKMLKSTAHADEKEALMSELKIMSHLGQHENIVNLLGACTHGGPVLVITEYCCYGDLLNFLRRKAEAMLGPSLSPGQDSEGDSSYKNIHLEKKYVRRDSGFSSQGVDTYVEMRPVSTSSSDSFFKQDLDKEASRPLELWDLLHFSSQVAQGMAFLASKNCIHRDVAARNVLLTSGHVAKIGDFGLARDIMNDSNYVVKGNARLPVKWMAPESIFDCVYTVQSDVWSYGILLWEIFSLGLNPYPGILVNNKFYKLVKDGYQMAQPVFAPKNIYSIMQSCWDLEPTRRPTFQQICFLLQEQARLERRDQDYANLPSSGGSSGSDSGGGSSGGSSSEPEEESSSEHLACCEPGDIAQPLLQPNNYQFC
# assay.explanation: Inhibition of FMS in mouse BMDM cells
The scale used: pIC50 is minus the common logarithm of the concentration in molar units.

Kindly note the recorded pIC50 for CC1(C)CC=C(c2cc(C(C)(C)O)ccc2NC(=O)c2nc(C#N)c[nH]2)CC1 , which is 7.60

pIC50 reading for CC1(C)CC=C(c2cc(CCO)ccc2NC(=O)c2ncc(C#N)[nH]2)CC1 : 7.74

CC1(C)CC=C(c2cc(CCS(N)(=O)=O)ccc2NC(=O)c2nc(C#N)c[nH]2)CC1 yielded pIC50 of 7.07

Looking up CC1(C)CC=C(c2cc(C(C)(C)NCCO)ccc2NC(=O)c2nc(C#N)c[nH]2)CC1 , I see its pIC50 listed as 8.11

// recorded pIC50 for N#Cc1cnc(C(=O)Nc2ccc(CN3CCOCC3)cc2C2=CCCCC2)[nH]1 : 7.70

The measured pIC50 associated with CC(C)(O)Cc1ccc(NC(=O)c2nc(C#N)c[nH]2)c(C2=CCCCC2)c1 reads 7.49

Lab note: CC1(C)CC=C(c2cc(C(C)(C)NCCN3CCOCC3)ccc2NC(=O)c2nc(C#N)c[nH]2)CC1 gave pIC50 of 8.24

Recorded pIC50 (compound N#Cc1cnc(C(=O)Nc2ccc(CCN3CCOCC3)cc2C2=CCCCC2)[nH]1 ): 8.74

compound N#Cc1c[nH]c(C(=O)Nc2ccc(C(N)=O)cc2C2=CCCCC2)n1 , pIC50 observed: 7.47

GET /value?item= CC1(C)CC=C(c2cc(CCS(=O)(=O)NN)ccc2NC(=O)c2nc(C#N)c[nH]2)CC1 &field=pIC50 returns 7.68

// sample N#Cc1cnc(C(=O)Nc2ccc(CCO)cc2C2=CCCCC2)[nH]1 , its pIC50 was 7.40

Per the records, this compound ( N#Cc1cnc(C(=O)Nc2ccc(CCS(=O)(=O)NN)cc2C2=CCCCC2)[nH]1 ) has pIC50 equal to 7.64

GET /value?item= CC1(C)CC=C(c2cc(C(C)(C)N3CCOCC3)ccc2NC(=O)c2nc(C#N)c[nH]2)CC1 &field=pIC50 returns 7.77

Reported pIC50 ( CC1(C)CC=C(c2cc(C(N)=O)ccc2NC(=O)c2nc(C#N)c[nH]2)CC1 ) = 7.49
